Below are compounds with their IC50 as measured on UniProtKB P00533.
PARAMETER: IC50 (nM)

Known IC50 results, listed for orientation:
{"SMILES_DATA": "C=CC(=O)Nc1cc2c(Nc3ccc(F)c(Cl)c3)ncnc2cc1C#CC(C)(C)N(CCOC)CCOC", "READOUT_NUMBER": 3.5}
{"SMILES_DATA": "C=CC(=O)Nc1cc2c(Nc3ccc(F)c(Cl)c3)ncnc2cc1C#CC(COCC)(COCC)N1CCN(C)CC1", "READOUT_NUMBER": 4.4}
{"SMILES_DATA": "C=CC(=O)Nc1cc2c(Nc3ccc(F)c(Cl)c3)ncnc2cc1C#CC(C)(C)N(CC)CCC(=O)OC", "READOUT_NUMBER": 2.6}
{"SMILES_DATA": "CC(C)(C#Cc1cc2ncnc(Nc3ccc(F)c(Cl)c3)c2cc1NS(C)(=O)=O)N1CCN(S(C)(=O)=O)CC1", "READOUT_NUMBER": 2.1}
{"SMILES_DATA": "C=CC(=O)Nc1cc2c(Nc3ccc(F)c(Cl)c3)ncnc2cc1C#CC(C)(C)N1CCN(S(C)(=O)=O)CC1", "READOUT_NUMBER": 1.9}

1: C=CC(=O)Nc1cc2c(Nc3ccc(F)c(Cl)c3)ncnc2cc1C#CC(C)(C)N1CCN(C)CC1
2: C#Cc1cccc(Nc2ncnc3cc(OCC)c(C#CC(C)(C)N(C)C4CCN(C)CC4)cc23)c1
Could you please tell me which of these two has the higher IC50: 1 or 2 ? Use the label to indicate which entry you chose.
2
(2: 3.2 nM, 1: 1.8 nM)

---

Target: EGFR (human) (UniProt P00533)
Sequence (P00533 whole entry, looked up): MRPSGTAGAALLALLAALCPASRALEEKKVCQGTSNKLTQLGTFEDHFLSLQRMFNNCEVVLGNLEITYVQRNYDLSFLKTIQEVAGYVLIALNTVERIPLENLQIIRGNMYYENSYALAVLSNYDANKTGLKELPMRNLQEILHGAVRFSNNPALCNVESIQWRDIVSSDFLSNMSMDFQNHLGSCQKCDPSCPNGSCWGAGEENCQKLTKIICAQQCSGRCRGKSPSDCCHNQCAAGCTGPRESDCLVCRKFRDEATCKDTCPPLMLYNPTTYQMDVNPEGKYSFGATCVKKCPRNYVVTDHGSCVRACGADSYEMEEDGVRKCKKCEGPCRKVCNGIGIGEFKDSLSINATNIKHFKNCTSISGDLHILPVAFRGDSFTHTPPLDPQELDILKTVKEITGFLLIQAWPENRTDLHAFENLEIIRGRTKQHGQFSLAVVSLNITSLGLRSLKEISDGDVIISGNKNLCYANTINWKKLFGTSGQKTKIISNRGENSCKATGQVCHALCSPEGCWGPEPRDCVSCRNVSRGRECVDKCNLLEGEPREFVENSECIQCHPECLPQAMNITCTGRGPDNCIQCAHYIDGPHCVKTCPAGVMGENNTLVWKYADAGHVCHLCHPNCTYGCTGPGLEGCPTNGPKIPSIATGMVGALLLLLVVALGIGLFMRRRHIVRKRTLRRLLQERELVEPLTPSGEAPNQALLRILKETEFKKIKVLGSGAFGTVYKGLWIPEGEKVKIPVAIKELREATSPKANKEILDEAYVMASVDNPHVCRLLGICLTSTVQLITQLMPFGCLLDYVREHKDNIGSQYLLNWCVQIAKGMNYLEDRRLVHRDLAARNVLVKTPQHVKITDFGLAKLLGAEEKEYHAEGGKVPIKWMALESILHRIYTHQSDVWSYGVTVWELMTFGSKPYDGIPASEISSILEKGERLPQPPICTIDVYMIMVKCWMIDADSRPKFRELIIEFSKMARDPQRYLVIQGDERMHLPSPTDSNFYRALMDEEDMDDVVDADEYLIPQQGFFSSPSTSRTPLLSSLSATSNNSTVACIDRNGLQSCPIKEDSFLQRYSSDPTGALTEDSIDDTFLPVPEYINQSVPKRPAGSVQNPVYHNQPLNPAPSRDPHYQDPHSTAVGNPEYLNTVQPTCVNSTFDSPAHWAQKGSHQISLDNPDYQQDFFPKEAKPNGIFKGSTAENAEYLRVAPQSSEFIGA
PARAMETER: IC50 (nM)

Known IC50 results, listed for orientation:
{"SMILES_DATA": "CC(=O)N1CCN(C(C)(C)C#Cc2cc3ncnc(Nc4ccc(F)c(Cl)c4)c3cc2NS(C)(=O)=O)CC1", "IC50, nM": 2.1}
{"SMILES_DATA": "CN(C)CCN(C)C(C)(C)C#Cc1cc2ncnc(Nc3ccc(F)c(Cl)c3)c2cc1NS(C)(=O)=O", "IC50, nM": 2.9}
{"SMILES_DATA": "C=CC(=O)Nc1cc2c(Nc3ccc(F)c(Cl)c3)ncnc2cc1C#CC(C)(C)N1CCC(=O)CC1", "IC50, nM": 1.8}

P: C=CC(=O)Nc1cc2c(Nc3ccc(F)c(Cl)c3)ncnc2cc1C#CC(C)(C)N1CCCN(C)CC1
Q: CC(C)(C#Cc1cc2ncnc(Nc3ccc(F)c(Cl)c3)c2cc1NS(C)(=O)=O)N1CCC(=O)CC1
Could you please tell me which of these two has the higher IC50: P or Q ? Use the label to indicate which entry you chose.
P

---

Target: EGFR (human)
pIC50: −log10 of the molar value.
PARAMETER: pIC50

{"SMILES_DATA": "C#Cc1cccc(Nc2ncnc3cc(OCC)c(C#CC(C)(C)N4CCN(C(C)=O)CC4)cc23)c1", "PARAMETER": "pIC50", "RESULT": "< 8.00"}
{"SMILES_DATA": "C=CC(=O)Nc1cc2c(Nc3ccc(F)c(Cl)c3)ncnc2cc1C#CC(C)(C)N1CCN(C(C)=O)CC1", "PARAMETER": "pIC50", "RESULT": "> 9.00"}
{"SMILES_DATA": "C=CC(=O)Nc1cc2c(Nc3ccc(F)c(Cl)c3)ncnc2cc1C#CCN1CCOCC1", "PARAMETER": "pIC50", "RESULT": "> 9.00"}
{"SMILES_DATA": "C=CC(=O)Nc1cc2c(Nc3ccc(F)c(Cl)c3)ncnc2cc1C#CCCN1CCOCC1", "PARAMETER": "pIC50", "RESULT": "> 9.00"}

Moving on to the next compound.
Please fill in: pIC50 reported for C=CC(=O)Nc1cc2c(Nc3ccc(F)c(Cl)c3)ncnc2cc1C#CCN1CCN(C)CC1 = > 9.00
